Data origin: patent US20210292393A1

Target: SARS-CoV-2 spike (S) protein (SARS-CoV-2), P0DTC2
Settings: remark: other sources report otherwise
QUANTITY KIND: koff (s⁻¹)
Expressed in s⁻¹, but write only the number.

Quick one: koff of antibody 304 (antibody, V domains shown) VH: EVQLLESGGGLVQPGGSLRLSCAASGFTFSTYAMSWVRQAPGKGLEWVSAISGSGGSTYYADSVKGRFTISRDNSKNTLYLQMNSLRAEDTAVYYCASGYSPDYWGQGTLVTVSS VL: AIQMTQSPSSLSASVGDRVTITCRASQGIRNDLGWYQQKPGKAPKLLIYAASSLQSGVPSRFSGSGSGTDFTLTISSLQPEDFATYYCLQDYNYPRTFGQGTKVEIK ?
0.000274

The record that follows has no koff shown yet.
Quick one: koff of antibody 382 (antibody, V domains shown) VH: QVQLVESGGGVVQPGRSLRLSCAASGFTFSNYGMHWVRQAPGKGLEWMTVISFDGRNKYYADSVKGRFTISRDNSKNTLFLQMNSLTTEDTALYFCASGRRPRYSSGWSFDYWGQGTLVTVSS VL: DIQMTQSPSSLSASVGDRVTITCQASQDIGNYLNWYQQKLGKAPNLLIYDASNLETGVPSRFSGSGSGTDFTFTINSLQPEDTATYYCQQYDDPSITFGQGTRLEIK ?
0.00134
